study target: T1, Bcat-Halo (UniProt P35222 1-781)
T1 sequence (looked up): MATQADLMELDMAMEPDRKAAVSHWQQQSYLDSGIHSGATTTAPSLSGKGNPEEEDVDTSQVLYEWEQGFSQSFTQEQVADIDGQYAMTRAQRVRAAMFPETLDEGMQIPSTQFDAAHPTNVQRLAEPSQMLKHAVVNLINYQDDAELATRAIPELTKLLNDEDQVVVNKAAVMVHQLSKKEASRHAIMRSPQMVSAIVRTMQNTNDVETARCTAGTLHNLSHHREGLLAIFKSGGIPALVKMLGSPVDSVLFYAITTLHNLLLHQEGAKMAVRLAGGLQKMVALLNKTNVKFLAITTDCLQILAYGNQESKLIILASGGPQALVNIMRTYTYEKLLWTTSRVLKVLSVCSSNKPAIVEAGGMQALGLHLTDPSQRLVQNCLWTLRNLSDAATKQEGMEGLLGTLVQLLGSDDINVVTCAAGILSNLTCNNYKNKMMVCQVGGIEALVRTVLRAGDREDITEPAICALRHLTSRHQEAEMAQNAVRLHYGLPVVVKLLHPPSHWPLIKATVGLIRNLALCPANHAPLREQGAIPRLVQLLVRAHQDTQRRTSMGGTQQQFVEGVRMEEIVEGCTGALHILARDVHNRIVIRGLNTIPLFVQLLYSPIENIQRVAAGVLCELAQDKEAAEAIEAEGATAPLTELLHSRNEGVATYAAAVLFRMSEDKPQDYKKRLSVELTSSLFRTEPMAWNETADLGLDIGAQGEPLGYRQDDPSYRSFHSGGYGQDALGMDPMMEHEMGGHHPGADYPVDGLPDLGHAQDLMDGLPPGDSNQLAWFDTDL
measurement protocol: cell-based or functional assay
Starred links: 1 amine or outer side, 2 acyl side, 3 side chain; linkers in the order of their positions; H or OH if unused. Positions of bridges follow the written chain, without caps; N, C: chain ends. Non-standard residues stand in square brackets, D forms with d. Primed or numbered codes have the meaning given here. (CMe2CO2H)TriAzDab = (S)-2-amino-4-(4-(2-carboxypropan-2-yl)-1H-1,2,3-triazol-1-yl)butanoic acid, CC(C)(C(=O)[*:3])c1cn(CC[C@H](N[*:1])C(=O)[*:2])nn1; PyrS2″ = (S)-3-amino-1-((pent-4-en-1-yloxy)carbonyl)pyrrolidine-3-carboxylic acid (stapling residue), C=CCCCOC(=O)N1CC[C@@](N[*:1])(C(=O)[*:2])C1; (CH2CH2CO2H)TriAzDab = (S)-2-amino-4-(4-(2-carboxyethyl)-1H-1,2,3-triazol-1-yl)butanoic acid, O=C([C@H](CCn1cc(CCC(=O)[*:3])nn1)N[*:1])[*:2]; (CH2CH2CO2H)TriAzDap = (S)-2-amino-3-(4-(2-carboxyethyl)-1H-1,2,3-triazol-1-yl)propanoic acid, O=C([C@H](Cn1cc(CCC(=O)[*:3])nn1)N[*:1])[*:2]; (CH2CO2H)TriAzDap = (S)-2-amino-3-(4-(carboxymethyl)-1H-1,2,3-triazol-1-yl)propanoic acid, O=C([C@H](Cn1cc(CC(=O)[*:3])nn1)N[*:1])[*:2]; B5(4) = 2,2-bis(4-pentenyl)glycine = 2-amino-2-(pent-4-en-1-yl)hept-6-enoic acid (stitching residue), C=CCCCC(CCCC=C)(N[*:1])C(=O)[*:2]; (2COOHPh)TriAzDab = O=C([C@H](CCn1cc(-c2ccccc2C(=O)[*:3])nn1)N[*:1])[*:2]; Phe(3-COOH) = N[C@@H](Cc1cccc(C(=O)O)c1)C(=O)O; Phe(2-CF3) = N[C@@H](Cc1ccccc1C(F)(F)F)C(=O)O; Bta = N[C@@H](Cc1csc2ccccc12)C(=O)O; αAllylPro = C=CC[C@@]1(C(=O)O)CCCN1; tBuAla = CC(C)(C)C[C@H](N)C(=O)O; 3Thi = N[C@@H](Cc1ccsc1)C(=O)O; PyrS2(4) = not defined here
Recorded measurements of NanoBRET Abs IC50, one per entry

Example binders with recorded NanoBRET Abs IC50:
Ac-[αAllylPro]D[tBuAla][B5(4)]D[(CH2CO2H)TriAzDap]AAFL[PyrS2″][3Thi][Bta]Q-NH2 (staple 1-4, 4-11) [I-2084] | 9.2 µM
Ac-[αAllylPro]D[tBuAla][B5(4)]D[Phe(3-COOH)]AAFL[PyrS2″][Phe(2-CF3)][Bta][dA]-NH2 (staple 1-4, 4-11) [I-2091] | 6.2 µM
Ac-[αAllylPro]D[tBuAla][B5(4)]D[(CH2CH2CO2H)TriAzDap]AAFL[PyrS2″][3Thi][Bta]Q-NH2 (staple 1-4, 4-11) [I-2082] | 7.7 µM
Ac-[αAllylPro]D[tBuAla][B5(4)]D[(CH2CH2CO2H)TriAzDab]AAFL[PyrS2″][3Thi][Bta]Q-NH2 (staple 1-4, 4-11) [I-2076] | 14.1 µM
Ac-[αAllylPro]D[tBuAla][B5(4)]D[(CMe2CO2H)TriAzDab]AAFL[PyrS2″][3Thi][Bta]Q-NH2 (staple 1-4, 4-11) [I-2079] | 15.1 µM

Name the recorded NanoBRET Abs IC50 for Ac-[αAllylPro]D[tBuAla][B5(4)]D[Phe(3-COOH)]AAFF[PyrS2(4)][3Thi][Bta][dA]-NH2 (staple 1-4, 4-11; reading uncertain) [I-2094] .
9.7 µM

Also, Ac-[αAllylPro]D[tBuAla][B5(4)]D[(2COOHPh)TriAzDab]AAFL[PyrS2(4)][3Thi][Bta]Q-NH2 (staple 1-4, 4-11; not fully specified; reading uncertain) [I-2081] please.
11.6 µM

Also, Ac-[αAllylPro]D[tBuAla][B5(4)]D[Phe(3-COOH)]AAFF[PyrS2″][3Thi][Bta][dQ]-NH2 (staple 1-4, 4-11) [I-2092] please.
4.4 µM

Also, Ac-[αAllylPro]D[tBuAla][B5(4)]D[(2COOHPh)TriAzDab]AAFL[PyrS2″][3Thi][Bta]Q-NH2 (staple 1-4, 4-11; not fully specified) [I-2080] please.
28.8 µM
